Biological target: scFv-2 (120_15439_2), de novo designed single-chain antibody
Assay: BLI
Measurement Name: Kd (nM)
Answers are plain numbers, in nM.

Prompt: Could you tell me which Kd is on file for DVFYPYPYASGS [dodecapeptide antigen … (as used in biolayer interferometry)] ?
Response: 17.5
